Entries and their measured Trimeric HA Binding: RLU follow.
# SYSTEM UNDER TEST: recombinant soluble homotrimeric HA, A/northern shoveler/California/HKWF115/07 H6N4 (Influenza A virus A/northern shoveler/California/HKWF115/2007(H6N1))
# ASSAY PROTOCOL: microarray, transfection SN IgG, trimeric HA
# EXPERIMENTAL SETUP: remark: other sources report otherwise
MEASURE: Trimeric HA Binding: RLU (RLU)

INSERT INTO assay_data (binder, observed_result) VALUES
  ('TCN-552 (5249_I23) (antibody, V domains shown) VH: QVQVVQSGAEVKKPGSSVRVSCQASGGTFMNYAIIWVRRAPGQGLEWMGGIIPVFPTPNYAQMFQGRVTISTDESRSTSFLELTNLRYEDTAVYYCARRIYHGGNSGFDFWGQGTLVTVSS VL: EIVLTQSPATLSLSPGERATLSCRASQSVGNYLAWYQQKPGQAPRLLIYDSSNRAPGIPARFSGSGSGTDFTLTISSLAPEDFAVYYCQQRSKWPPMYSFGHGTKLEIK', 43900),
  ('TCN-523 (5248_A17) (antibody, V domains shown) VH: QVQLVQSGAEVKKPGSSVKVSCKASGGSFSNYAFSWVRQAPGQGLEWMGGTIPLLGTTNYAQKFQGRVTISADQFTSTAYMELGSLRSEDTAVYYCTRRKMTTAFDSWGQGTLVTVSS VL: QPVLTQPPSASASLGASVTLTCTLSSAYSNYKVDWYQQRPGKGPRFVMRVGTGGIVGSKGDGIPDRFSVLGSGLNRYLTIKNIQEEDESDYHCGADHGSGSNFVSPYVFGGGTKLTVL', 46900),
  ('TCN-558 (5248_H10b) (antibody, V domains shown) VH: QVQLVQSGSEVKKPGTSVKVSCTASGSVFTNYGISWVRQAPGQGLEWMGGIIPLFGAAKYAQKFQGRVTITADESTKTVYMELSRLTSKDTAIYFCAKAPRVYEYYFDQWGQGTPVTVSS VL: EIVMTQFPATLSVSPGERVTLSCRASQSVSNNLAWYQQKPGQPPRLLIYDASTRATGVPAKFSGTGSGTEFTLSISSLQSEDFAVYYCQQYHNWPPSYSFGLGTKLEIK', 29400),
  ('TCN-555 (5246_L16) (antibody, V domains shown) VH: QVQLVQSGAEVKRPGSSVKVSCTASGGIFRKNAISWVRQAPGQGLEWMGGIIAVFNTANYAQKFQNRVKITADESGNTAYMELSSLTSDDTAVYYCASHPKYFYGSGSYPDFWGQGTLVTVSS VL: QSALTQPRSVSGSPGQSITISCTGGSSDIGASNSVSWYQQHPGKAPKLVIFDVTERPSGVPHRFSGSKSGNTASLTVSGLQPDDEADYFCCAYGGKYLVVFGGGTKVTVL', 28700);
